- Test system: THRa:RXRa (NR concentration 90 nM, RXRa partner concentration 90 nM)
- ASSAY_METHOD_TEXT: PBM binding z-score (relative to random genomic background probes); higher = stronger binding; sequences stand for … in GC…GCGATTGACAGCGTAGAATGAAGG
Please mark class 1 if the recorded PBM binding z-score is equal to or greater than 4, and class 0 if it falls below.

SEQUENCE_STRING: CGAACGAGGGCATGAGTTGATAACAAATGCCGAT
TESTED_SYSTEM: THRa:RXRa (NR concentration 90 nM, RXRa partner concentration 90 nM)
CLASSIFICATION: class 0
//
SEQUENCE_STRING: CGTACAAGGTCAAGGTCAGTGAAAGAGACTCGAA
TESTED_SYSTEM: THRa:RXRa (NR concentration 90 nM, RXRa partner concentration 90 nM)
CLASSIFICATION: class 1
//
SEQUENCE_STRING: AGAATGAGGTTACCAATGATCAGGGAAACGCTTG
TESTED_SYSTEM: THRa:RXRa (NR concentration 90 nM, RXRa partner concentration 90 nM)
CLASSIFICATION: class 0
//
SEQUENCE_STRING: CTCGAAAGGTCGGTTGAGGTGAGGATACGGATAA
TESTED_SYSTEM: THRa:RXRa (NR concentration 90 nM, RXRa partner concentration 90 nM)
CLASSIFICATION: class 1
//
SEQUENCE_STRING: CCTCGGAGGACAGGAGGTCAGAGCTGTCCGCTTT
TESTED_SYSTEM: THRa:RXRa (NR concentration 90 nM, RXRa partner concentration 90 nM)
CLASSIFICATION: class 0

---

- Tested on: PXR homodimer (NR concentration 270 nM)
- ASSAY_METHOD_TEXT: PBM binding z-score (relative to random genomic background probes); higher = stronger binding; sequences stand for … in GC…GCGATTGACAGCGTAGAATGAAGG
Below, each entry is listed alongside its reported PBM binding z-score.
RECORDED_METRIC: PBM binding z-score

SEQUENCE_STRING: TAGCCTAGGTCAGATCGGGCTAGTATACGCTATA
OBS_VALUE: -0.428
//
SEQUENCE_STRING: CCGAATGGGGCAAGGTTACCATAACGCACAGCCA
OBS_VALUE: -0.323
//
SEQUENCE_STRING: TCTATTAGTTGATTAGGGCAATCGAAACAGCGGA
OBS_VALUE: 0.192
//
SEQUENCE_STRING: ATCGAAAGTTCGACGAGGTGAGTATACACCGTTT
OBS_VALUE: 2.24
//
SEQUENCE_STRING: TCTAGTTGGTCAAAGGTCCCACACTCGAAATGCG
OBS_VALUE: -0.0577
//
SEQUENCE_STRING: TCAGACAGGTGAAGGTAAATCAGGTACGCAGTCG
OBS_VALUE: 0.51
//
SEQUENCE_STRING: CTACCAAGGTGAACTAGGTCGTTGATTACTATTC
OBS_VALUE: 0.424
//
SEQUENCE_STRING: CCAGACAGGTGAGAAGGAAACTCAGCCTCGATTA
OBS_VALUE: 0.143
//
SEQUENCE_STRING: ATATGTAGGTTAAGGGTCATTCACGTTGGTTCGC
OBS_VALUE: 0.957
//
SEQUENCE_STRING: ACTCGGCGGACAAAGGTCAGAGCTACGCCAGTGA
OBS_VALUE: 0.0332
//
SEQUENCE_STRING: CTCGAAAAGTCGGTTGAGGTGAGTATACGGATAA
OBS_VALUE: -0.0272
//
SEQUENCE_STRING: CCAGACAGGGGAGAAGGTAACTCAGCCTCGATTA
OBS_VALUE: -0.0553

---

- Tested on: LXRb homodimer (NR concentration 270 nM)
- ASSAY_METHOD_TEXT: PBM binding z-score (relative to random genomic background probes); higher = stronger binding; sequences stand for … in GC…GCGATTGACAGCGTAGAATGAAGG
PBM binding z-score overview

SEQUENCE_STRING: CCAGACAGGTGAAAGGTAATTCAGTCTGGTACGC
PBM binding z-score: -0.433

SEQUENCE_STRING: CCTTACGGGTCACGAGATTATAGCACGACGAGCG
PBM binding z-score: 0.00532

SEQUENCE_STRING: CCTACTGGGCCAAAGGTCATCGATTCCAATGCTC
PBM binding z-score: 0.378

SEQUENCE_STRING: TCTCGGAAGACACGAAAGGTCAGAGCTCGACATC
PBM binding z-score: 0.242

SEQUENCE_STRING: GTACCAAGGTGAGTAGGTCGTTGATGAGTAGGCG
PBM binding z-score: -0.924

SEQUENCE_STRING: ACTTACTGGTCAACGAGGTTATAGCACGCGTATA
PBM binding z-score: 0.859

SEQUENCE_STRING: CCTACTGGGCCATCAGGTCAGTGATATCAACGTT
PBM binding z-score: -0.379

SEQUENCE_STRING: AGAATGAGGTTAAGGTCAGGGAAACAGAATACAT
PBM binding z-score: 0.526

SEQUENCE_STRING: CAGCCTTGGTCAGGGCCAGTATAGGAGGAACGTT
PBM binding z-score: -1.46

SEQUENCE_STRING: CCTAACGGGTCACTGACAGGTTATAGCATTTGGA
PBM binding z-score: -0.0444

SEQUENCE_STRING: GCGACTGGGGCATCAGCAGGTTACCCTAACTTAA
PBM binding z-score: -1.16

SEQUENCE_STRING: TGAATGAGGTTATCAGATCAGGGAACGTTGCAAA
PBM binding z-score: -0.266

SEQUENCE_STRING: AAACCAAGGTGATCGTGAGGTCGTTGATACTAAC
PBM binding z-score: -0.456

SEQUENCE_STRING: CGTCCAAGGTCATGGTCAGTGAAAGAGACTCGAA
PBM binding z-score: 0.455

SEQUENCE_STRING: ATATGTAGGTTAGTTGGGGTCATTCAGACTAGGC
PBM binding z-score: 1.94

SEQUENCE_STRING: ACAGACAGGTGAGAGAAGGTAACTCAGCTGGACG
PBM binding z-score: -0.81

SEQUENCE_STRING: TTACCAAGGTGAGCGGAGGTCGTTGATCCAACTC
PBM binding z-score: -1.16

SEQUENCE_STRING: GGAACTAGGGCAAGTTGATAGCAGAGTTTGATGG
PBM binding z-score: -0.374

SEQUENCE_STRING: ATATGTAGGTTACATCCGGGTCATACAGGCTATG
PBM binding z-score: 0.809

SEQUENCE_STRING: AGAAGGAGGGCAATGAGTTGATAGCACGGGTGGC
PBM binding z-score: 0.521

SEQUENCE_STRING: GATGCAGGGTCAGCTAGAGGCCAGAGTATGGAAA
PBM binding z-score: -0.68

SEQUENCE_STRING: GTTAGTTGGTCAGTAAAAGGTCACACACCGGTCG
PBM binding z-score: 1.41

SEQUENCE_STRING: ACTAGCAGGCCAAGGGTCACTCATGATTAGTCCG
PBM binding z-score: -0.498

SEQUENCE_STRING: TCTAGTTGGCCACGGAGGTCACACACGACGGGTA
PBM binding z-score: 0.0016

SEQUENCE_STRING: ACTATTACTTGACTTAGGGCAACCGATACGACGC
PBM binding z-score: 1.56

SEQUENCE_STRING: ATCTCTAGGTAAAGATAGTTCAGCGAATGCAAAT
PBM binding z-score: 0.431

---

- Test system: RARg homodimer (NR concentration 270 nM)
- ASSAY_METHOD_TEXT: PBM binding z-score (relative to random genomic background probes); higher = stronger binding; sequences stand for … in GC…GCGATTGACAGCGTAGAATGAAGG
Returns one of yes (1) or no (0); yes (1) when PBM binding z-score is >= 4.

SEQUENCE_STRING: GGAACGACGGCAAAGTTGATAGCATCTGTCGACG
CLASSIFICATION: no (0)
//
SEQUENCE_STRING: CCGCCTGGGGCAGAAAGGTTACCATACCATCCGG
CLASSIFICATION: no (0)
//
SEQUENCE_STRING: TAGCCTAGGTCATTGGGCCAGTGTAGTACGCATC
CLASSIFICATION: yes (1)
//
SEQUENCE_STRING: CCTAATTGGTCAAGGTCACACACGCTATAGGTAC
CLASSIFICATION: yes (1)
//
SEQUENCE_STRING: GCTCGGAGGACAAGGTCAGACCTTTGTCCGTAGA
CLASSIFICATION: no (0)
//
SEQUENCE_STRING: CCTTACGGGTCACGAGGGTATAGCACGACGAGCG
CLASSIFICATION: yes (1)
